Biological target: Kv1.3 potassium channel (Homo sapiens, UniProt P22001)
Construct: expressed in transfected cells
Sequence (P22001 whole entry): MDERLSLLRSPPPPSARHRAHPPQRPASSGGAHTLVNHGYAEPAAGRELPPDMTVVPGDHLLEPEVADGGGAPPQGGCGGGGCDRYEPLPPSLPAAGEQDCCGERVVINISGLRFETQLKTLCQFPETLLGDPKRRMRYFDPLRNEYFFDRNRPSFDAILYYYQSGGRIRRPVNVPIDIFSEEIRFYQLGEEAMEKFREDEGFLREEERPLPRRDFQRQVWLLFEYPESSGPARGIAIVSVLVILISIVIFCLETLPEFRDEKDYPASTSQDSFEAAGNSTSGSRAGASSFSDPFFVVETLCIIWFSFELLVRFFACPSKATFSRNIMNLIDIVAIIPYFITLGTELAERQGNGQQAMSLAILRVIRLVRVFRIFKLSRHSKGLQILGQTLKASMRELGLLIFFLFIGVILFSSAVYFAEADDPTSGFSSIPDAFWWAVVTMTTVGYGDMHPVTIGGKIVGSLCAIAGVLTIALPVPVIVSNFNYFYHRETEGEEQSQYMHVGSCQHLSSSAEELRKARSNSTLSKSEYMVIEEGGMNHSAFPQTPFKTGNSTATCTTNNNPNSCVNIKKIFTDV
Experiment: Kv1.3 potassium channel blocker activity, automated whole-cell patch clamp (Patchliner)
Format: cell-based
Settings: CHO-K1 cells stably expressing Kv1.3; whole-cell current inhibition, Hill fit; read-out: Kv1.3 IC50
pIC50: −log10 of the molar value.
quantity.kind: pIC50

Prompt: Which pIC50 value belongs to `O=C1CNCCN1CCN1C[C@H](c2c(O)ccc(Cl)c2Cl)CC1=O` ?
Completion: > 7.00

Prompt: Which pIC50 value belongs to O=C1C[C@H](c2c(O)ccc(Cl)c2Cl)CN1[C@H]1CCNC1 (single isomer, unassigned) ?
Completion: > 7.00

Prompt: Which pIC50 value belongs to `O=C1C[C@@H](c2c(O)ccc(Cl)c2Cl)CN1C1CC(F)(F)C1` ?
Completion: > 6.00

Prompt: Which pIC50 value belongs to O=C1O[C@H](c2c(O)ccc(Cl)c2Cl)CN1CCO (single isomer, unassigned; isomer 1) ?
Completion: > 6.00

Prompt: Which pIC50 value belongs to `O=C1C[C@@H](c2c(O)ccc(Cl)c2Cl)CN1CC1CNC1` ?
Completion: > 7.00

Prompt: Which pIC50 value belongs to `N[C@H]1C(=O)N(C2CNC2)C[C@@H]1c1c(O)ccc(Cl)c1Cl` ?
Completion: > 6.00

Prompt: Which pIC50 value belongs to `O=C1C[C@@H](c2c(O)ccc(Cl)c2Cl)CN1C[C@@H](O)CO` ?
Completion: > 7.00

Prompt: Which pIC50 value belongs to `O=C1C[C@@H](c2c(O)ccc(Cl)c2Cl)CN1c1cnoc1` ?
Completion: > 6.00

Prompt: Which pIC50 value belongs to `Cc1ncc(N2C[C@H](c3c(O)ccc(Cl)c3Cl)CC2=O)s1` ?
Completion: > 7.00

Prompt: Which pIC50 value belongs to `O=C1N[C@@H](c2c(O)ccc(Cl)c2Cl)CN1C[C@@H](O)CO` ?
Completion: > 6.00

Prompt: Which pIC50 value belongs to `CC(C)(O)CCN1C[C@H](c2c(O)ccc(Cl)c2Cl)CC1=O` ?
Completion: > 6.00

Prompt: Which pIC50 value belongs to O=C1C[C@@H](c2c(O)ccc(Cl)c2Cl)CN1[C@H]1C[C@](O)(CO)C1 (single isomer, unassigned; isomer 4) ?
Completion: > 7.00

Prompt: Which pIC50 value belongs to O=C1N[C@@H](c2c(O)ccc(Cl)c2Cl)CCN1[C@@H]1CCNC1 (single isomer, unassigned) ?
Completion: > 6.00

Prompt: Which pIC50 value belongs to O=C1N[C@@H](c2c(O)ccc(Cl)c2Cl)CCN1[C@H]1CCNC1 (single isomer, unassigned) ?
Completion: > 6.00

###

Target: Kv1.3 potassium channel (Homo sapiens)
Construct: expressed in transfected cells
Test: Kv1.3 potassium channel blocker activity, automated whole-cell patch clamp (Patchliner)
Type: cell-based
Conditions: CHO-K1 cells stably expressing Kv1.3; whole-cell current inhibition, Hill fit; read-out: Kv1.3 IC50
quantity.kind: IC50

Prompt: Which IC50 value belongs to O=C1C[C@@H](c2c(O)ccc(Cl)c2Cl)CCN1[C@@H]1CCNC1 (single isomer, unassigned) [Compound 4] ?
Completion: < 1 µM

Prompt: Which IC50 value belongs to O=C1N[C@@H](c2c(O)ccc(Cl)c2Cl)CN1CCO [Compound 99] ?
Completion: < 0.1 µM

Prompt: Which IC50 value belongs to O=C1C[C@@H](c2c(O)ccc(Cl)c2Cl)CCN1[C@H]1CCNC1 (single isomer, unassigned) [Compound 2] ?
Completion: < 0.1 µM

Prompt: Which IC50 value belongs to O=C1C[C@@H](c2cc(Cl)c(Cl)cc2O)CN1C1CNC1 [Compound 22] ?
Completion: < 1 µM

Prompt: Which IC50 value belongs to O=C1C[C@@H](c2c(O)ccc(Cl)c2Cl)CN1C1CCOCC1 [Compound 17] ?
Completion: < 1 µM

Prompt: Which IC50 value belongs to N[C@H](CO)CN1C[C@H](c2c(O)ccc(Cl)c2Cl)CC1=O [Compound 50] ?
Completion: < 0.1 µM

Prompt: Which IC50 value belongs to O=C1CC[C@H](c2c(O)ccc(Cl)c2Cl)CN1[C@H]1CCNC1 (single isomer, unassigned) [Compound 7] ?
Completion: < 0.1 µM

Prompt: Which IC50 value belongs to O=C1C[C@@H](c2c(O)ccc(Cl)c2Cl)CN1CCCO [Compound 35] ?
Completion: < 0.01 µM
